Provenance of the data: PubChem BioAssay AID1159580

Assay: chemical genetic growth profiling, strain panel (AID 1159580);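 further: tested at 20 µM; growth read once vehicle control cultures reached saturation at 30 °C; lower values mean less growth of the strain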
Settings: S. cerevisiae deletion strains, growth OD, locus YDL074C, strain BRE1
Screen size: about 5,500 compounds; about 2,000 (36%) were called active. Not shown: some 18% with an inconclusive outcome. No stated cut-off is given here; in the data, active means normalized growth mostly below about 0.91 (no sharp cut-off); inconclusive means no clear call, values can overlap the other calls; inactive means mostly above about 0.92. This is one part of the list.
Labels: active, inactive

{"compound": "COc1cc(OC)c2c(=O)c(OC)c(-c3ccc(OC)c(OC)c3)oc2c1", "assigned.category": "inactive"}
{"compound": "CCN(Cc1ccncc1)C(=O)C(CO)c1ccccc1 (centres undefined)", "assigned.category": "inactive"}
{"compound": "Oc1cc2c(cc1O)C1c3ccc(O)c(O)c3OCC1(O)C2 (centres undefined)", "assigned.category": "inactive"}
{"compound": "CC(C)c1c(O)ccc2c1CCC1[C@@](C)(CO)CCC[C@]21C (some centres undefined)", "assigned.category": "inactive"}
{"compound": "COc1ccc(-c2oc3c(CC=C(C)C)c(O[C@@H]4O[C@H](CO)[C@@H](O)[C@H](O)[C@H]4O)cc(O)c3c(=O)c2O[C@@H]2O[C@@H](C)[C@H](O)[C@@H](O)[C@H]2O)cc1", "assigned.category": "inactive"}
{"compound": "O=c1c(O)c(-c2cc(O)c(O)c(O)c2)oc2cc(O)cc(O)c12", "assigned.category": "inactive"}
{"compound": "COc1ccc2c3c1OC1C(O)CC=C4C(C2)N(C)CCC431 (centres undefined)", "assigned.category": "inactive"}
{"compound": "COc1ccc(-c2cc(=O)c3c(O)cc(O[C@H]4O[C@H](CO[C@@H]5O[C@@H](C)[C@H](O)[C@@H](O)[C@H]5O)[C@@H](O)[C@H](O)[C@H]4O)cc3o2)cc1", "assigned.category": "inactive"}
{"compound": "COc1cc(OC)c2c(=O)c(O)c(-c3ccc(OC)c(OC)c3)oc2c1", "assigned.category": "active"}
